// provenance: patent US11479552B2

- TESTED ON: hOX2R (Homo sapiens (Human), UniProt O43614)
- Sequence (O43614 whole entry): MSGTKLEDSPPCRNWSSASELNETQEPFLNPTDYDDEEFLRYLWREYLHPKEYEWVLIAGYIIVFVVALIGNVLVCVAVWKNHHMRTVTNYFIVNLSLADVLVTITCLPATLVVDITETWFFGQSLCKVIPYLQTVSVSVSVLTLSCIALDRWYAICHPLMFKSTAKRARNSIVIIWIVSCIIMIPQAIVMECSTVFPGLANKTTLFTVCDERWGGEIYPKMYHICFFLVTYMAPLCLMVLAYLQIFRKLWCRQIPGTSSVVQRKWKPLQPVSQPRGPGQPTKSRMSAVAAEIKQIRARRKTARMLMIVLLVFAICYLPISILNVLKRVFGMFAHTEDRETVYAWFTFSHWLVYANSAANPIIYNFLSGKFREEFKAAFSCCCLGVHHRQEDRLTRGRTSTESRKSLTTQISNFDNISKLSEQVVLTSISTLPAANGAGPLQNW
- TEST SUMMARY: Test Example 1-2: Evaluation of activating activity for OX2R (calcium flux, HEK293 with forced expression)
- Format: cell-based
- CONDITION CONTEXT: HEK293 cells expressing hOX2R; intracellular calcium; 30 nM OX-A as 100%; up to 1×10^−5 M
Hi there, I'd appreciate the recorded EC50 for every entry that follows.
Record the value in nM, omitting the unit from your answer.

Q: Bench note: what EC50 did CO[C@@H]1CN(c2ncc(F)cn2)CC[C@@H]1[C@@H]1C[C@H]2CC[C@@H](C1)N2[C@@H](C(N)=O)C1CC1 [Example 1] show?
A: 2.3

Q: Repeat with CCO[C@@H]1CN(c2ncc(Cl)cn2)CC[C@@H]1[C@@H]1C[C@H]2CC[C@@H](C1)N2[C@@H](C(N)=O)C1CC1 [Example 3]
A: 4.3

Q: Now the compound C[C@H]1C[C@@H]([C@@H]2C[C@H]3CC[C@@H](C2)N3[C@@H](C(N)=O)C2CC2)CCN1c1ncc(F)cn1 [Example 4]
A: 4.4
